Reference for the values: patent EP0353754A2

# method.summary: Organ distribution of injected radioactivity in rats after I.V. injection
# Assay type: in vivo, Ratten (weiblich, Wistar, spf)
# condition.notes: rat, liver, iv, Leber, 10′, Ratte, read-out: Prozent der injizierten Aktivität pro Gramm des entsprechenden Organs
property.name: tissue uptake at 10 min (%ID/g)
Kindly answer with a numeric value in %ID/g, unit omitted.

Tell me tissue uptake at 10 min reported for `CCOC(=O)c1ncn2c1CN(C)C(=O)c1c([123I])cccc1-2`
5.66

---

# method.summary: Organ distribution of injected radioactivity in rats after I.V. injection
# Type: in vivo, Ratten (weiblich, Wistar, spf)
# condition.notes: rat, ovary, iv, Ovar, 20′, Ratte, read-out: Prozent der injizierten Aktivität pro Gramm des entsprechenden Organs
property.name: tissue uptake at 20 min (%ID/g)
Give just the numeric value; %ID/g need not be written.

Return tissue uptake at 20 min for the following molecule: `CCOC(=O)c1ncn2c1CN(C)C(=O)c1c([123I])cccc1-2`
0.53

---

# method.summary: Organ distribution of injected radioactivity in rats after I.V. injection
# Assay type: in vivo, Ratten (weiblich, Wistar, spf)
# condition.notes: rat, spleen, iv, Milz, 40′, Ratte, read-out: Prozent der injizierten Aktivität pro Gramm des entsprechenden Organs
property.name: tissue uptake at 40 min (%ID/g)
Respond with the bare value in %ID/g.

Look up and state reported tissue uptake at 40 min for `CCOC(=O)c1ncn2c1CN(C)C(=O)c1c([123I])cccc1-2`
0.14

---

# method.summary: Organ distribution of injected radioactivity in rats after I.V. injection
# Type: in vivo, Ratten (weiblich, Wistar, spf)
# condition.notes: rat, heart, iv, Herz, 40′, Ratte, read-out: Prozent der injizierten Aktivität pro Gramm des entsprechenden Organs
property.name: tissue uptake at 40 min (%ID/g)
Expressed in %ID/g, but write only the number.

Input `CCOC(=O)c1ncn2c1CN(C)C(=O)c1c([123I])cccc1-2` , output reported tissue uptake at 40 min.
0.1

---

# method.summary: Organ distribution of injected radioactivity in rats after I.V. injection
# Type: in vivo, Ratten (weiblich, Wistar, spf)
# condition.notes: rat, intestine, iv, Darm, 60′, Ratte, read-out: Prozent der injizierten Aktivität pro Gramm des entsprechenden Organs
# Experimental: Es werden je 3 Ratten (weiblich, Wistar, spf) zu sieben verschiedenen Zeitpunkten (2′, 10′, 20′, 40′, 1h, 6h, 15h) gemessen. Das Gewicht der Tiere lag zwischen 113 und 144 g. Die Fütterung erfolgte ad libitum. Die I.V. injizierten Dosen variierten von 184 bis 355 µCi in jeweils 0,2 ml.
property.name: tissue uptake at 1 h
Please state the value followed by its unit.

Annotate the compound `CCOC(=O)c1ncn2c1CN(C)C(=O)c1c([123I])cccc1-2` with its measured tissue uptake at 1 h.
1.97 %ID/g

---

# method.summary: Organ distribution of injected radioactivity in rats after I.V. injection
# Type: in vivo, Ratten (weiblich, Wistar, spf)
# condition.notes: rat, stomach, iv, Magen, 2′, Ratte, read-out: Prozent der injizierten Aktivität pro Gramm des entsprechenden Organs
property.name: tissue uptake at 2 min

Name the recorded tissue uptake at 2 min of the item `CCOC(=O)c1ncn2c1CN(C)C(=O)c1c([123I])cccc1-2` in your answer.
0.19 %ID/g

---

# method.summary: Organ distribution of injected radioactivity in rats after I.V. injection
# Assay type: in vivo, Ratten (weiblich, Wistar, spf)
# condition.notes: rat, stomach, iv, Magen, 40′, Ratte, read-out: Prozent der injizierten Aktivität pro Gramm des entsprechenden Organs
property.name: tissue uptake at 40 min (%ID/g)
Only the number, expressed in %ID/g, is required.

In one line, give reported tissue uptake at 40 min of the entry `CCOC(=O)c1ncn2c1CN(C)C(=O)c1c([123I])cccc1-2` .
0.27
